method summary: Noncompartmental PK of tuvusertib in plasma
Type: in vivo, human
applied conditions: human, plasma, po
value type: Tmax

GET /values?readout=Tmax&item= Cn1cncc1-c1c(F)cncc1NC(=O)c1c(N)nn2cc(F)cnc12
0.5 to 3.5 h

---

method summary: Noncompartmental PK of tuvusertib in plasma
Type: in vivo, human
applied conditions: human, plasma, oral
value type: half-life

GET /values?readout=half-life&item= Cn1cncc1-c1c(F)cncc1NC(=O)c1c(N)nn2cc(F)cnc12
1.2 to 5.6 h
